Molecular target: human PDE9A2 (Homo sapiens)
Construct: made in house; host or cells: Sf9 insect cells (infected); crude lysate used as enzyme source
Assay: PDE9A2 enzymatic activity assay (scintillation proximity assay, SPA)
Format: biochemical
Conditions: read-out: % inhibition of PDE9A2 (at 10 micromolar concentration), 10 micromolar concentration; values above 100% adjusted to 100%
Field: inhibition at 10 µM. Provide a value for each of the compounds that follow.
# output: bare number, implied unit %

Exam item: inhibition at 10 µM for CCC(Cc1nc2c(cnn2C2CCOCC2)c(=O)[nH]1)C(F)(F)F (racemic) [Example 48] ?
Marked response: 96

Exam item: Find the recorded inhibition at 10 µM belonging to O=c1[nH]c(CC2CCCC2)nc2c1cnn2C1CCNCC1 and report it.
Marked response: 88

Exam item: For O=c1[nH]c(Cc2ccccc2OC(F)(F)F)nc2c1cnn2C1CCOCC1 , what is its reported inhibition at 10 µM?
Marked response: 100

Exam item: Need inhibition at 10 µM of CCC(Cc1nc2c(cnn2C2CCCN(C(=O)OC(C)(C)C)C2)c(=O)[nH]1)C(F)(F)F (racemic) , thanks.
Marked response: 97

Exam item: What value of inhibition at 10 µM has been reported for the following compound? O=c1[nH]c(Cc2cc(F)cc(F)c2)nc2c1cnn2C1CCOCC1
Marked response: 98

Exam item: For CCC(C)Cc1nc2c(cnn2C2CCOC2)c(=O)[nH]1 (mixture of isomers) , what is its reported inhibition at 10 µM?
Marked response: 97

Exam item: Fill in: inhibition at 10 µM of Cc1cccn(-c2ccccc2Cc2nc3c(cnn3C3CCOCC3)c(=O)[nH]2)c1=O is ___
Marked response: 95

Exam item: Can you share its inhibition at 10 µM? I mean this compound: O=c1[nH]c(CCC2CCC2)nc2c1cnn2C1CCOCC1
Marked response: 100

* * *

Molecular target: human PDE9A2 (Homo sapiens)
Construct: made in house; host or cells: Sf9 insect cells (infected); crude lysate used as enzyme source
Assay: PDE9A2 enzymatic activity assay (scintillation proximity assay, SPA)
Format: biochemical
Conditions: read-out: % inhibition of PDE9A2 (at 10 micromolar concentration), 10 micromolar concentration; values above 100% adjusted to 100%
assay.readout: inhibition at 10 µM (%)
Express your answer in %, writing the number without its unit.

Exam item: Endpoint output: inhibition at 10 µM of N#Cc1ccccc1Cc1nc2c(cnn2C2CCOCC2)c(=O)[nH]1 . Value?
Marked response: 99

Exam item: Requested read-out: inhibition at 10 µM. Entry: O=c1[nH]c(CC2CCCO2)nc2c1cnn2C1CCOCC1 (racemic)
Marked response: 92

Exam item: Bench note: what inhibition at 10 µM did O=C(c1ccccc1)N1CCC(n2ncc3c(=O)[nH]c(Cc4ccccc4)nc32)C1 (racemic) show?
Marked response: 92

Exam item: Entry CN(C)C(=O)N1CCCC(n2ncc3c(=O)[nH]c(CC4CCCC4)nc32)C1 (racemic) has what inhibition at 10 µM?
Marked response: 96

Exam item: I'd like to know its inhibition at 10 µM. The molecule in question is Cc1cc(C)cc(Cc2nc3c(cnn3C3CCOCC3)c(=O)[nH]2)c1
Marked response: 100

Exam item: Requested field: inhibition at 10 µM. Item: COC(=O)N1CCCC(n2ncc3c(=O)[nH]c(Cc4ccccc4OC(F)(F)F)nc32)C1 (racemic)
Marked response: 99

Exam item: For COc1ccccc1Cc1nc2c(cnn2C2CCN(C)C2)c(=O)[nH]1 (racemic) , what is its reported inhibition at 10 µM?
Marked response: 92

Exam item: Request the reported inhibition at 10 µM associated with O=c1[nH]c(Cc2ccccc2OC2CCCC2)nc2c1cnn2C1CCOCC1
Marked response: 95

* * *

Kindly supply the reported IC50 values for the records listed here.
Target: human PDE9A2 (Homo sapiens, UniProt O76083)
Construct: made in house; host or cells: Sf9 insect cells (infected); crude lysate used as enzyme source
Sequence (O76083 1-533 isoform O76083-2): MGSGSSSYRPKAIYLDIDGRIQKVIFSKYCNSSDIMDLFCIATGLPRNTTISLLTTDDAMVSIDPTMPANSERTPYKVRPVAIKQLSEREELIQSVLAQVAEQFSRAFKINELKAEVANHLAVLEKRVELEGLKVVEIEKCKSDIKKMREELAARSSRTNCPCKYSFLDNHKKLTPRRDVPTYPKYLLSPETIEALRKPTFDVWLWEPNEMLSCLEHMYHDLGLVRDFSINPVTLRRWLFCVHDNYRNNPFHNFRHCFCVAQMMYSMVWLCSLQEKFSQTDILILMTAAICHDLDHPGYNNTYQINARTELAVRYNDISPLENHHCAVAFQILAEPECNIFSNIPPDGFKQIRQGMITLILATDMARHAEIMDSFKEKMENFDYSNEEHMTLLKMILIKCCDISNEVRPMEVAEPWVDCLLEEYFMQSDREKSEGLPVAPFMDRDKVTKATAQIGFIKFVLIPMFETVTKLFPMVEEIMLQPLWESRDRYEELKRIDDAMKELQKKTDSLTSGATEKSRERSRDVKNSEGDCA
Experiment: PDE9A2 enzymatic activity assay (scintillation proximity assay, SPA)
Type: biochemical
Settings: reported only as range 1-100 or 101-1200 nanomolar; specific value lies within range; read-out: IC50 within range [nanomolar (nM)]

Exam item: // IC50 lookup, key: O=c1[nH]c(CC2CCCC2)nc2c1cnn2C1CCNCC1
Marked response: 101 to 1200 nM

Exam item: Recorded IC50 of CC(Cc1nc2c(cnn2C2CCOCC2)c(=O)[nH]1)C(F)(F)F (single isomer, unassigned) [Example 132] , please.
Marked response: 101 to 1200 nM

Exam item: IC50 for CCC(Cc1nc2c(cnn2C2CCOCC2)c(=O)[nH]1)C(F)(F)F (single isomer, unassigned) [Example 61] ?
Marked response: 1 to 100 nM

Exam item: I'd like to know its IC50. The compound in question is O=c1[nH]c(CC2CCC2)nc2c1cnn2C1CCCOC1 (racemic)
Marked response: 1 to 100 nM

* * *

Give % inhibition of PDE9A2 (at 10 micromolar concentration) for every item shown.
Target: human PDE9A2 (Homo sapiens)
Construct: made in house; host or cells: Sf9 insect cells (infected); crude lysate used as enzyme source
Assay: PDE9A2 enzymatic activity assay (scintillation proximity assay, SPA)
Format: biochemical
Conditions: 10 micromolar concentration; values above 100% adjusted to 100%
Please reply with the bare figure in % and do not write the unit itself.

Exam item: Request the reported % inhibition of PDE9A2 (at 10 micromolar concentration) associated with CCC(Cc1nc2c(cnn2C2CCOCC2)c(=O)[nH]1)C(F)(F)F (single isomer, unassigned) [Example 62]
Marked response: 95

Exam item: Looking for the measured % inhibition of PDE9A2 (at 10 micromolar concentration) of CC(C)Cc1nc2c(cnn2C2CCOCC2C)c(=O)[nH]1 (racemic) [Example 132-8] , can you help?
Marked response: 94

Exam item: Quick one: % inhibition of PDE9A2 (at 10 micromolar concentration) for CC1COCCC1n1ncc2c(=O)[nH]c(CC3CCCC3)nc21 (racemic) [Example 132-5] ?
Marked response: 100

Exam item: What does the data say about its % inhibition of PDE9A2 (at 10 micromolar concentration)? Entry: CC(C)Cc1nc2c(cnn2C2CCOC2)c(=O)[nH]1 (single isomer, unassigned) [Example 132-4]
Marked response: 98

Exam item: Value lookup for % inhibition of PDE9A2 (at 10 micromolar concentration); key = CC1CC(n2ncc3c(=O)[nH]c(CC4CCCC4)nc32)CCO1 (racemic) [Example 117]
Marked response: 97

Exam item: Find the recorded % inhibition of PDE9A2 (at 10 micromolar concentration) belonging to CC(Cc1nc2c(cnn2C2CCOCC2)c(=O)[nH]1)C(F)(F)F (single isomer, unassigned) [Example 132] and report it.
Marked response: 90

Exam item: Can you look up the measured % inhibition of PDE9A2 (at 10 micromolar concentration) of O=c1[nH]c(CC2CCC2)nc2c1cnn2C1CCOC1 (single isomer, unassigned) [Example 132-9] for me?
Marked response: 95

Exam item: What measured % inhibition of PDE9A2 (at 10 micromolar concentration) goes with CC1CC(n2ncc3c(=O)[nH]c(Cc4ccccc4C(F)(F)F)nc32)CCO1 (racemic) [Example 116] ?
Marked response: 93

Exam item: // lookup % inhibition of PDE9A2 (at 10 micromolar concentration) for CC(C)Cc1nc2c(cnn2C2CCOC(C)C2)c(=O)[nH]1 (racemic) [Example 115]
Marked response: 92

Exam item: Using the record for CC1CC(n2ncc3c(=O)[nH]c(Cc4ccccn4)nc32)CCO1 (racemic) [Example 118] , report its % inhibition of PDE9A2 (at 10 micromolar concentration).
Marked response: 89

* * *

Answer each item with its documented IC50.
Biological target: human PDE9A2 (Homo sapiens, UniProt O76083)
Construct: made in house; host or cells: Sf9 insect cells (infected); crude lysate used as enzyme source
Test: PDE9A2 enzymatic activity assay (scintillation proximity assay, SPA)
Assay type: biochemical
Conditions: reported only as range 1-100 or 101-1200 nanomolar; specific value lies within range; read-out: IC50 within range [nanomolar (nM)]

Exam item: Please state recorded IC50 (tested on human PDE9A2 (Homo sapiens, UniProt O76083)) of O=c1[nH]c(Cc2c(F)cccc2Cl)nc2c1cnn2C1CCOCC1
Marked response: 1 to 100 nM

Exam item: Quick check: IC50 on human PDE9A2 (Homo sapiens, UniProt O76083), item O=c1[nH]c(Cc2ccccc2F)nc2c1cnn2C1CCCNC1 (racemic) ?
Marked response: 101 to 1200 nM

Exam item: Request - read-out IC50 | tested on human PDE9A2 (Homo sapiens, UniProt O76083) | compound CCC(Cc1nc2c(cnn2C2CCCN(C(C)=O)C2)c(=O)[nH]1)C(F)(F)F (mixture of isomers)
Marked response: 101 to 1200 nM

Exam item: Query IC50 on human PDE9A2 (Homo sapiens, UniProt O76083) for CCC(CC)Cc1nc2c(cnn2C2CCOCC2)c(=O)[nH]1
Marked response: 1 to 100 nM

Exam item: Give IC50 (human PDE9A2 (Homo sapiens, UniProt O76083)) of the following compound: CCOc1ccccc1Cc1nc2c(cnn2C2CCCN(C(C)=O)C2)c(=O)[nH]1 (racemic)
Marked response: 101 to 1200 nM

Exam item: Item O=c1[nH]c(Cc2ccccn2)nc2c1cnn2C1CCOC1 (racemic) [Example 124] with human PDE9A2 (Homo sapiens, UniProt O76083) - IC50?
Marked response: 101 to 1200 nM

Exam item: What IC50 appears in the records for this compound with human PDE9A2 (Homo sapiens, UniProt O76083)? O=c1[nH]c(CC2CCC2)nc2c1cnn2C1CCOC1 (single isomer, unassigned) [Example 132-6]
Marked response: 1 to 100 nM

Exam item: I'm curious: which IC50 was measured for O=c1[nH]c(Cc2cccc(C(F)(F)F)c2)nc2c1cnn2C1CCCNC1 (racemic) tested on human PDE9A2 (Homo sapiens, UniProt O76083)?
Marked response: 1 to 100 nM
